Subject of test: α7 nAChR (Rattus norvegicus, UniProt Q05941)
Construct: expressed in transfected cells; host or cells: KXα7R1
Sequence (Q05941 23-502): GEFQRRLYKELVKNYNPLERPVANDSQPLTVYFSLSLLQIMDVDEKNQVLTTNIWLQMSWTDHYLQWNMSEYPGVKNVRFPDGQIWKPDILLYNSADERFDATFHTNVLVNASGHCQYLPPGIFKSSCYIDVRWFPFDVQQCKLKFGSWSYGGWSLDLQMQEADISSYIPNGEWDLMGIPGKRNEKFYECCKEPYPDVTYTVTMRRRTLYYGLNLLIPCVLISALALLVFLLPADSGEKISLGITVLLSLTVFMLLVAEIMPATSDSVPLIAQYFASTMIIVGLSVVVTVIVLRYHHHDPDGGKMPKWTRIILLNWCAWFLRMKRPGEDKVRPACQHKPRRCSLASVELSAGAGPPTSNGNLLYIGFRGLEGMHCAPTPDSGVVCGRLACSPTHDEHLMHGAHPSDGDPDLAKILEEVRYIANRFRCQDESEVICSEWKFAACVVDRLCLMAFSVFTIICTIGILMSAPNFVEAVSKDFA
Test protocol: whole-cell patch clamp, currents evoked by acetylcholine in KXα7R1
Assay type: cell-based
Particulars: read-out: IC50 at α7 nAChR
Outcome measure: pIC50
pIC50 here: minus log base 10 of the concentration, concentration in moles per litre.

Fill blank: measured pIC50 of the compound NC1(c2ccccc2Cl)CCC=CC1=O (racemic) [(R,S)-DHNK, (R,S)-dehydronorketamine] is ____.
7.30

----------
Subject of test: NMDA receptor
Test protocol: NMDA receptor inhibition
Type: binding
Particulars: read-out: NMDAR Ki
Counter-ions that a name gives are not always drawn.
Each entry below carries its recorded pKi.
As a rule, pKi stands for the negative log10 of the concentration, concentration in M.

Would you please look over these solved cases?
                                   molecule  outcome_measure  observed_measurement
0    N[C@]1(c2ccccc2Cl)CCC=CC1=O [(S)-DHNK]              pKi                  4.41
1  N[C@@]1(c2ccccc2Cl)CCC=CC1=O [(R)-DHNK, hydrochloride]              pKi                  4.13
2  N[C@]1(c2ccccc2Cl)CCCCC1=O [(S)-norKet, (S)-norketamine, reference compound]              pKi                  5.65
3  N[C@@]1(c2ccccc2Cl)CCCCC1=O [(R)-norKet, (R)-norketamine, reference compound]              pKi                  4.58

Quick check: pKi of N[C@@]1(c2ccccc2Cl)CCC[C@@H](O)C1=O [(2S,6S)-HNK, Hydrochloride] ?
4.67
